- Study Target: DAT (D206E) (Homo sapiens, UniProt Q01959, D206E)
- Construct: expressed in transfected cells; host or cells: HEK293 (transient, calcium phosphate)
- Protocol Description: Zinc inhibition of [3H]MPP+ uptake in HEK293 cells transiently expressing DAT-D206E
- Assay type: cell-based
- Experimental Parameters: [3H]MPP+ uptake inhibition, mean ± S.E., read-out: High-affinity site: IC50 (Zn^2+)
Outcome Measure: IC50

Input: Which value of IC50 has been reported for [Zn+2] [zinc] in the records?
Output: 1220 nM

* * *

- Study Target: DAT (H193K) (Homo sapiens, UniProt Q01959, H193K)
- Protocol Description: Zinc inhibition of [3H]MPP+ uptake in HEK293 cells transiently expressing DAT-H193K
- Experimental Parameters: [3H]MPP+ uptake inhibition, homogeneous (mono-phasic) inhibition curve, mean ± S.E., read-out: Low-affinity site: IC50 (Zn^2+)
- Method: Wild-type human DAT was generously donated by Marc G. Caron; DAT H193K was a generous gift from Ulrik Gether. Wild-type and mutant DAT were YFP tagged at their N-terminus as described in Egana et al.. […] Cells were seeded at 0.5×10^5 cells/ml into poly-D-lysine coated 48 well plates twenty-four hours after calcium phosphate transfection with either wild-type or mutant DAT. […] Non-specific uptake was determined in the presence of 10 µM mazindol. […]
Outcome Measure: IC50
Write the quantity with the unit trailing the number.

Input: API: value(readout= IC50, system= DAT (H193K) (Homo sapiens, UniProt Q01959, H193K), query= [Zn+2] [zinc] )
Output: 102 µM

* * *

- Study Target: DAT (D206K) (Homo sapiens, UniProt Q01959, D206K)
- Construct: expressed in transfected cells; host or cells: HEK293 (transient, calcium phosphate)
- Sequence (Q01959 whole entry D206K): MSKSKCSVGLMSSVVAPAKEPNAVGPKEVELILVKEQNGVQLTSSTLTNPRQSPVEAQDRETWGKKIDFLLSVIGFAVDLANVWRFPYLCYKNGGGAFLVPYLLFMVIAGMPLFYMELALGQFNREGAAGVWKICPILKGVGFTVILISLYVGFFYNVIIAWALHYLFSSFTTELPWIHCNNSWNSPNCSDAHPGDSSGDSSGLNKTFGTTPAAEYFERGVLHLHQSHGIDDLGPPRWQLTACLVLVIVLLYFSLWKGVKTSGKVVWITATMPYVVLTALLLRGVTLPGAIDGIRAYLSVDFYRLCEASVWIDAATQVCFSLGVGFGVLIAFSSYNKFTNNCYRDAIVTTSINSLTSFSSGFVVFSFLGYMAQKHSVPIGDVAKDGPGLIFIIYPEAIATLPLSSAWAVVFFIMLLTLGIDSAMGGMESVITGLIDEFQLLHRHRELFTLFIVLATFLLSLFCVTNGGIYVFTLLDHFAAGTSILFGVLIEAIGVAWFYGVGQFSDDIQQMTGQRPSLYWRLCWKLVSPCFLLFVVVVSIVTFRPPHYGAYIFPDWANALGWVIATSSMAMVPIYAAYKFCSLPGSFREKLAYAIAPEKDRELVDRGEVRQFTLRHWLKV
- Protocol Description: Zinc inhibition of [3H]MPP+ uptake in HEK293 cells transiently expressing DAT-D206K
- Type: cell-based
- Experimental Parameters: [3H]MPP+ uptake inhibition, HEK293 cells, DAT D206K, mean ± S.E.; read-out: High-affinity site: IC50 (Zn^2+)
- Description: Wild-type human DAT was generously donated by Marc G. Caron; DAT H193K was a generous gift from Ulrik Gether. Wild-type and mutant DAT were YFP tagged at their N-terminus as described in Egana et al.. […] Cells were seeded at 0.5×10^5 cells/ml into poly-D-lysine coated 48 well plates twenty-four hours after calcium phosphate transfection with either wild-type or mutant DAT. […] Non-specific uptake was determined in the presence of 10 µM mazindol. […]
Outcome Measure: IC50 (µM)
Output spec: scalar in µM, unitless text.

Input: Quick check: IC50 of `[Zn+2]` ?
Output: 2.54

* * *

- Study Target: DAT (wild-type) (Homo sapiens)
- Construct: expressed in transfected cells; host or cells: HEK293 (transient, calcium phosphate)
- Sequence (Q01959 whole entry): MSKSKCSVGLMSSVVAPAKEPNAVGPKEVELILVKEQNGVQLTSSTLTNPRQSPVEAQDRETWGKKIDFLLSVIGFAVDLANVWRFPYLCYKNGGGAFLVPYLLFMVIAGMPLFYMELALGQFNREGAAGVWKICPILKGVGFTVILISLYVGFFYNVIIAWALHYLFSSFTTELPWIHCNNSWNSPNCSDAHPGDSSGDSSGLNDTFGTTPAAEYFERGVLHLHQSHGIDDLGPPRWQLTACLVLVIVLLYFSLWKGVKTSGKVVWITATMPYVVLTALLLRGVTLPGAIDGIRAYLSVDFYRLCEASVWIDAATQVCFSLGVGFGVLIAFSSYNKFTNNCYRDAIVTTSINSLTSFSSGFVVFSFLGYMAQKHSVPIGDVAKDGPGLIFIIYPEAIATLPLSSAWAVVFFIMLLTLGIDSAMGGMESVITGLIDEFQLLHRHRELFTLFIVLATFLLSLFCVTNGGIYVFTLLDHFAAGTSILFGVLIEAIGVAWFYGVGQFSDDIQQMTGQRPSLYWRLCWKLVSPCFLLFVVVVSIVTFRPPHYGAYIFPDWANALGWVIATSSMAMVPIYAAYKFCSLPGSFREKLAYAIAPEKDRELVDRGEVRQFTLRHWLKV
- Protocol Description: Zinc inhibition of [3H]MPP+ uptake in HEK293 cells transiently expressing wild-type DAT
- Format: cell-based
- Experimental Parameters: [3H]MPP+ uptake inhibition, HEK293 cells, bi-phasic fit, mean ± S.E., read-out: Low-affinity site: IC50 (Zn^2+)
Outcome Measure: IC50 (µM)
// units = µM; emit number, no label

Input: Hi! What's the reported IC50 for `[Zn+2]` on DAT (wild-type) (Homo sapiens)?
Output: 798
